Below, each of the compounds is paired with its reported drug sensitivity score value.
tested on: FMOC25_1 (patient-derived low-grade serous ovarian cancer cells); assay: drug sensitivity score (DSS3, normalised partial AUC of % inhibition dose-response) (DSS (score)); higher = more sensitive (stronger inhibition of viability); extreme values may be limits of the assay; conditions: 72 h; library: FO4B; assay format: 2D, 384-well, CellTiter-Glo

COMPOUND	TESTED SYSTEM	drug sensitivity score
C[C@]12C=CC(=O)C=C1CC[C@@H]1[C@@H]2C(=O)C[C@@]2(C)[C@H]1CC[C@]2(O)C(=O)CO	FMOC25_1	0
C[C@]12CC[C@@H]3c4ccc(O)cc4C[C@@H](CCCCCCCCC[S+]([O-])CCCC(F)(F)C(F)(F)F)[C@H]3[C@@H]1CC[C@@H]2O (stereo partly specified)	FMOC25_1	0
Cc1cc(Nc2cc(CN3CCOCC3)c3nc(C)c(Cc4ccc(Cl)cc4F)n3n2)n[nH]1	FMOC25_1	3.7
Cc1cc(-c2ncc(-c3cccnc3)cc2/C=C/c2ccccc2)cnc1-c1cccnc1	FMOC25_1	5.5
CNc1nc(-c2ccc3c(N)n[nH]c3c2)cc(N2C[C@@H](C(=O)NC3CCCCC3)CC[C@H]2C)n1	FMOC25_1	6.9
CO[C@@]12[C@H](COC(N)=O)C3=C(C(=O)C(C)=C(N)C3=O)N1C[C@@H]1N[C@@H]12	FMOC25_1	3.6
c1ccc(Cn2c(-c3ccc(OC[C@H](C4CCNCC4)n4c(-c5ccccc5)nc5ccccc54)cc3)nc3ccccc32)cc1	FMOC25_1	5.5
O=C(/C=C\n1cnc(-c2cc(C(F)(F)F)cc(C(F)(F)F)c2)n1)NNc1ccccn1 [Verdinexor]	FMOC25_1	6.2
COc1ncc(-c2ccc3nccc(-c4ccnnc4)c3c2)cc1NS(=O)(=O)c1ccc(F)cc1F	FMOC25_1	24.2
CN(c1ccccc1CNc1nc(Nc2ccc3c(c2)CC(=O)N3)ncc1C(F)(F)F)S(C)(=O)=O	FMOC25_1	7
CN(C)c1nc(N(C)C)nc(N(C)C)n1	FMOC25_1	0
Cc1cnc(-c2ccccc2C(C)C)nc1NCc1ccc(-n2ccnn2)cc1	FMOC25_1	0.6
COc1c(OCCCN2CCOCC2)ccc2c1N=C(NC(=O)c1cnc(N)nc1)N1CCN=C21	FMOC25_1	11.7
CC(C)(C)c1cnc(CSc2cnc(NC(=O)C3CCNCC3)s2)o1	FMOC25_1	20.8
COC(=O)c1ccc2c(c1)[nH]c1ncnc(NCCCN3CCCCC3)c12	FMOC25_1	0
CCc1c2c(nc3ccc(O)cc13)-c1cc3c(c(=O)n1C2)COC(=O)[C@]3(O)CC	FMOC25_1	24.4
